Tested on: tDCs
Assay: IL-10 and IL-12 production of restimulated tDCs in the presence of inhibitors (ELISA)
Assay type: cell-based, human
Conditions: restimulation with CC, LPS, polyI:C, CD40L, 24 h
MEASURED_PARAMETER: IL-10 production in tDCs in the presence of inhibitor

{"COMPOUND": "COc1cccc(-c2cc(=O)c3ccccc3o2)c1N [PD98059]", "REPORTED_MEASUREMENT": "significantly dependent"}
{"COMPOUND": "C[S+]([O-])c1ccc(-c2nc(-c3ccncc3)c(-c3ccc(F)cc3)[nH]2)cc1 (stereo not shown) [SB203580]", "REPORTED_MEASUREMENT": "significantly dependent"}

Every entry's value here was drawn from patent US9987307B2.
